// data source = paper PMC11859928

System: DU-145
Assay: NCI one-dose assay
Type: cell-based
Conditions: Homo sapiens, DU-145, Prostate cancer, read-out: Cell growth inhibition %
property: inhibition at 10 µM (%)
Numbers only here, please. The scale is %.

Worked set:
C=CCn1c(SCC(=NO)c2ccc(OC)cc2)nnc1-c1c[nH]c2ccccc12 [Compound 7b] = -5.85
O=C(CSc1nnc(-c2c[nH]c3ccccc23)n1-c1ccccc1)c1ccc(Br)cc1 [Compound 6i] = 41.5
C=CCn1c(SC/C(=N\O)c2ccc(C)cc2)nnc1-c1c[nH]c2ccccc12 [Compound 7c] = -2.38
O=C(CSc1nnc(-c2c[nH]c3ccccc23)n1-c1ccccc1)c1ccccc1 [Compound 6f] = 14.3
Cc1ccc(C(=O)CSc2nnc(-c3c[nH]c4ccccc34)n2-c2ccccc2)cc1 [Compound 6h] = 21.1
COc1ccc(/C(CSc2nnc(-c3c[nH]c4ccccc34)n2-c2ccccc2)=N/O)cc1 [Compound 7g] = 57
C=CCn1c(SCC(=O)c2ccc(OC)cc2)nnc1-c1c[nH]c2ccccc12 [Compound 6b] = -11.8

Kindly review the next compound as well.
**Q:** Could you please provide reported inhibition at 10 µM for O/N=C(\CSc1nnc(-c2c[nH]c3ccccc23)n1-c1ccccc1)c1ccc(Br)cc1 [Compound 7i] ? Thanks!
**A:** 188
